All figures here come from paper PMC5540273.

System: TYK2(JH1domain-catalytic);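 also: KINOMEscan kinase panel screen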
measurementConditions: concentration: 1 μM,replicates: in singlicate; n = 1
Reported %Inh values for the following compounds.
Please don't drop the unit; write it after the number.

CC(C)N1C(=O)Cc2cc(Nc3ncc(C(F)(F)F)c(NCc4cccc(S(C)(=O)=O)c4)n3)ccc21 = 92.2%
O=C(NCCCN1CCOC1=O)c1cnc(NCc2cc(Cl)ccc2Cl)nc1NC1CCCC1 = 0%

Let me know recorded %Inh for CCn1c(-c2nonc2N)nc2c(C#CC(C)(C)O)nc(OCCN)cc21.Cl.Cl , thanks. 17%

Let me know recorded %Inh for C=CC(=O)Nc1cc2c(Nc3ccc(F)c(Cl)c3)ncnc2cc1OCCCN1CCOCC1 , thanks. 25%

Let me know recorded %Inh for CCN(CC)CCCCNc1ncc2cc(-c3c(Cl)cccc3Cl)c(NC(=O)NC(C)(C)C)nc2n1 , thanks. 7%

Let me know recorded %Inh for C[C@H]1Oc2cc(cnc2N)-c2c(nn(C)c2C#N)CN(C)C(=O)c2ccc(F)cc21 , thanks. 0%

Let me know recorded %Inh for CCN(CC)CCOc1ccc(Nc2ncc3cc(-c4c(Cl)cccc4Cl)c(=O)n(C)c3n2)cc1 , thanks. 96.7%

Let me know recorded %Inh for Cl.Cl.NC[C@H](CC1CCCCC1)NC(=O)c1cc(Br)c(-c2ccnc3[nH]ccc23)s1 , thanks. 13%

Let me know recorded %Inh for Cc1cc2cn[nH]c2cc1-c1cccc2c(N)c(C(N)=O)nnc12 , thanks. 71%
